- Tested on: Fer (mouse);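 also: 11-residue human phosphosite peptides and single-mutation variants displayed on the E. coli surface, counted by deep sequencing, each peptide's frequency after selection divided by its frequency in the unselected input library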;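 also: frequency after pTyr selection over input frequency; kinase dosed for 20-30% of maximal phosphorylation in three min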
- Assay notes: phosphorylation enrichment, bacterial display (enrichment ratio); higher = better substrate or ligand; peptides without Tyr show the background
Below is a list of entries, each paired with its recorded phosphorylation enrichment value.
Reply briefly: the number, and no unit.

{"Chain sequence": "DVQNEYDSNHC [ZFYVE16_Y36_A35E]", "Endpoint result": 0.414}

**Query** Would you mind telling me what phosphorylation enrichment value was observed for VDHFGYNKDDK [APOB_Y740_T741N] ?
**Result** 0.398

**Query** Param item: CTTIHKNYMCN [TP53_Y234_Y234K]
**Result** 0.406

**Query** Let us now turn to SHNKFYMLVAH [MFSD8_Y134_R139H_YF]
**Result** 0.791
